B1: PhoQ; a variant is named by its letters at X, in order, P23837 (parent)
chain: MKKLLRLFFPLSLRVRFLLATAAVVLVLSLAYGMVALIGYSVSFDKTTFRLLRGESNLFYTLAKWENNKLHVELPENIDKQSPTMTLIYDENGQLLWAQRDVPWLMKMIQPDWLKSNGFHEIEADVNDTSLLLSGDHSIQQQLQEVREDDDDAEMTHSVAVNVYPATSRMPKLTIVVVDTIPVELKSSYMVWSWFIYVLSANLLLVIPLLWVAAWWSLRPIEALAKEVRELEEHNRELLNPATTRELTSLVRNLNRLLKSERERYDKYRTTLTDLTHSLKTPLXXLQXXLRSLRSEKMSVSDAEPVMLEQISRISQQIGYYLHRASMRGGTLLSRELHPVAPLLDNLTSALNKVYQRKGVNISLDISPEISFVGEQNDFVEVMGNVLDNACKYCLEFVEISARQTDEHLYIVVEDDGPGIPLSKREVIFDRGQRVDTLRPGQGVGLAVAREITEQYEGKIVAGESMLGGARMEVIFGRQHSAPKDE

- Variants of: B1
- test-summary: enrichment ratio after two sorts for PhoP signalling (ratio (wild type AVST 3.29)); higher = more functional
- run-conditions: with PhoP (E. coli)
The full ranking holds about 140,000 sequences; the median of “enrichment ratio after two sorts for PhoP signalling” is about 0, and the highest 2% start at about 11. This is one part of a sample in which the highest values are shown more often than they occur.
measurement-kind: enrichment ratio

INSERT INTO assay_data (mutant, result) VALUES
  ('KSWA', '≤ 0.25'),
  ('MGGG', '≤ 0.25'),
  ('TSWA', 15.4),
  ('FSCH', 0.442),
  ('TSNF', 16.1),
  ('FFEW', '≤ 0.25'),
  ('LGLR', '≤ 0.25'),
  ('MMWA', '≤ 0.25'),
  ('KSNF', '≤ 0.25'),
  ('KSHV', '≤ 0.25');

Query MMNF yields enrichment ratio of ≤ 0.25
